Source listed as paper PMC9501832.

measured.attribute: melting point

Solved entries (count: 3):
compound: O=C1Nc2cccnc2N2C1=CNN=C2c1ccc([N+](=O)[O-])cc1 [Compound 12c]
melting point: 222 to 224 °C
//
compound: COc1ccc(/C=N/NC(=O)Cc2nc3ncccc3[nH]c2=O)cc1 [Compound 6c]
melting point: 222 to 224 °C
//
compound: C/C(=N\NCc1nc2ncccc2[nH]c1=O)c1ccccc1 [Compound 9e]
melting point: 230 to 233 °C

// query melting point value for entry O=c1[nH]c2cccnc2nc1CN(c1ccccc1)c1ccccc1 [Compound 8j]
292 to 293 °C

// query melting point value for entry O=c1[nH]c2cccnc2nc1CN1CCOCC1 [Compound 8c]
234 to 235 °C

// query melting point value for entry COc1ccc(/C=N/NCc2nc3ncccc3[nH]c2=O)cc1 [Compound 9d]
256 to 258 °C
